Target: recombinant human kappa opioid receptor (κ) (Homo sapiens (Human))
Assay: κ-opioid receptor radioligand dose-displacement binding assay ([3H]-U69,593)
Details: [3H]-U69,593 displacement

- compound: "COc1ccc2c(c1)[C@]13CCN(CC4CC4)[C@H](C2)[C@@H]1[C@H]1C2CCC(CC2)[C@H]1C(=O)C3 [Compound 5]"
  target_or_system: "recombinant human kappa opioid receptor (κ) (Homo sapiens (Human))"
  Ki [nM]: 126
- compound: "C=C1C[C@@]23CCN(CC4CC4)[C@H](Cc4ccc(OC)cc42)C3C2CC12 (some centres unmarked) [Compound 4]"
  target_or_system: "recombinant human kappa opioid receptor (κ) (Homo sapiens (Human))"
  Ki [nM]: 2.19
- compound: "C=CCOC1C[C@]23CCN(CC4CC4)[C@H](Cc4ccc(OC)cc42)C3C2CC12 (some centres unmarked) [Compound 3]"
  target_or_system: "recombinant human kappa opioid receptor (κ) (Homo sapiens (Human))"
  Ki [nM]: 3.04
- compound: "COc1ccc2c(c1)[C@]13CCN(CC4CC4)[C@H](C2)[C@@H]1C1CC1C(=O)C3 (some centres unmarked) [Compound 1]"
  target_or_system: "recombinant human kappa opioid receptor (κ) (Homo sapiens (Human))"
  Ki [nM]: 8.87
- compound: "COc1ccc2c(c1)[C@]13CCN(CC4CC4)[C@H](C2)[C@@H]1C1CC1C(O)C3 (some centres unmarked) [Compound 2]"
  target_or_system: "recombinant human kappa opioid receptor (κ) (Homo sapiens (Human))"
  Ki [nM]: 23.3
